molecular target: KDM5B enzyme (Homo sapiens); assay: KDM5B HTRF (TR-FRET) demethylase inhibition assay; assay type: biochemical; details: 1.2 nM KDM5B, 30 nM Biotin-H3K4Me3 1-21 substrate, 10 point dose-response
measureName: IC50

Would you please look over these solved cases?
compound: COc1cc(Cl)ccc1CCn1ccnc1-c1cc(C(=O)O)ccn1
result: 100 to 500 nM
--
compound: CNC(=O)c1cnc(-c2cc(C(=O)O)ccn2)n1CCc1ccc(Cl)cc1
result: ≤ 100 nM
--
compound: COc1ccc(Cn2c(-c3cc(C(=O)O)ccn3)nc3ccccc32)cc1
result: ≤ 100 nM
--
compound: O=C(O)c1ccnc(-c2ncc(CN3CCC(OC4CCCCC4)CC3)n2CCc2ccc(F)cc2)c1
result: ≤ 100 nM
--
compound: CN(CCc1cnc(-c2cc(C(=O)O)ccn2)n1CCc1ccc(F)cc1)Cc1ccc(Cl)cc1
result: ≤ 100 nM
--
compound: CCc1ccc(N(C)c2ccc3c(c2)OCCC3Cn2c(-c3cc(C(=O)O)ccn3)nc3ccccc32)cc1 (centres unmarked)
result: > 500 nM

Input line: Which value of IC50 has been reported for `COc1ccc(N(C)c2ccc(Cn3ccnc3-c3cc(C(=O)O)ccn3)cc2)cc1` in the records?
Output line: > 500 nM

Input line: Try `O=C(O)c1ccnc(-c2ncc(-c3ccccn3)n2Cc2ccc(Oc3ccccc3)cc2)c1` next.
Output line: 100 to 500 nM

====

# key: entry, value: IC50
target: KDM5B enzyme (Homo sapiens, UniProt Q9UGL1); assay: KDM5B HTRF (TR-FRET) demethylase inhibition assay; format: biochemical; settings: 1.2 nM KDM5B, 30 nM Biotin-H3K4Me3 1-21 substrate, 10 point dose-response
Sequence (Q9UGL1 whole entry): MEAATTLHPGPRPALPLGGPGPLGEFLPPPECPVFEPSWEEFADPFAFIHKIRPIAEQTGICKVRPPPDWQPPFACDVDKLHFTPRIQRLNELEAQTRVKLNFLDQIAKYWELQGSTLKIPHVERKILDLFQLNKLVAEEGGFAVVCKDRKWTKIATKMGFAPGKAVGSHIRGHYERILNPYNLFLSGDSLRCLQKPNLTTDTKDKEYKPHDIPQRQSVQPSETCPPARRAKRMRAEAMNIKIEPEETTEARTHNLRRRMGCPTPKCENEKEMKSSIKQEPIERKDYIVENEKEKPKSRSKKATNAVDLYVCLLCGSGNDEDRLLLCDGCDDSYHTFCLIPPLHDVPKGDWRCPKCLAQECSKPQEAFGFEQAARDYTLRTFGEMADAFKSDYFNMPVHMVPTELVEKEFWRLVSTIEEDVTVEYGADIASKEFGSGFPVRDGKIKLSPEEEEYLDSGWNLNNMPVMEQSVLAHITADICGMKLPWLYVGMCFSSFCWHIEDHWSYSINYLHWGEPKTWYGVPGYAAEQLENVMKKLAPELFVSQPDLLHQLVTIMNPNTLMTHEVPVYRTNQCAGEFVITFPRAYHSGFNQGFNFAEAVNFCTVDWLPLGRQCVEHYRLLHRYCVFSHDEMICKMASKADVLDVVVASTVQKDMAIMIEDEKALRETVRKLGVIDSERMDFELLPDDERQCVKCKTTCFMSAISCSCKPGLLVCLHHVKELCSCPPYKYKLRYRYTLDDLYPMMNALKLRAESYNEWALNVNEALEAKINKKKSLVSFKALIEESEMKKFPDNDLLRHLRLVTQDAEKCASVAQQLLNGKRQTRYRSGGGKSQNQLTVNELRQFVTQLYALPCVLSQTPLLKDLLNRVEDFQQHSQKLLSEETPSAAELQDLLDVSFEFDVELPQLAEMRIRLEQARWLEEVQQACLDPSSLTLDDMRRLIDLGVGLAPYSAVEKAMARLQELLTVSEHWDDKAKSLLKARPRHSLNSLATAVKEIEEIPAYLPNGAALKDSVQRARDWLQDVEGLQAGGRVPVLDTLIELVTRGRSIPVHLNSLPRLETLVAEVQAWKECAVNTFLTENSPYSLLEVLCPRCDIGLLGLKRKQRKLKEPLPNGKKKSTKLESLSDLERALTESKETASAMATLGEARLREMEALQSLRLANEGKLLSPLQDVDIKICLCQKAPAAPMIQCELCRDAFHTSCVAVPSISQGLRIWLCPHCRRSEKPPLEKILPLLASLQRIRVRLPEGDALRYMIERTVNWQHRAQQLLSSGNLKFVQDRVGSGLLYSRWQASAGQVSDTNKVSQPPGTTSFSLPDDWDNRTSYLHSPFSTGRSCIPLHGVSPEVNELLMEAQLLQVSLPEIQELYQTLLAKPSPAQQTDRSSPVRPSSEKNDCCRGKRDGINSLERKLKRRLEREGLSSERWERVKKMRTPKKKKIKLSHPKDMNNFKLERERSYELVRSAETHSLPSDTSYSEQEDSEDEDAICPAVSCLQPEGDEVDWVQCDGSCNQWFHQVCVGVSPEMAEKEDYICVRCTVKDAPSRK

compound: CCc1ccc(N(C)c2ccc3c(c2)OCCC3Cn2ccnc2-c2cc(C(=O)O)ccn2)cc1 (stereo not shown) [Example 42]
IC50: 100 to 500 nM
//
compound: CN1CCN(Cc2cnc(-c3cc(C(=O)O)ccn3)n2CCc2ccc(F)cc2)C(c2ccccc2)C1 (stereo not shown) [Example 72]
IC50: ≤ 100 nM
//
compound: O=C(O)c1ccnc(-c2nccn2CCc2ccc(Cl)cc2)c1 [Example 8]
IC50: > 500 nM

Alright, here's another compound for you.
Input line: IC50 lookup needed for Cn1c(CN2CCN(Cc3ccc(C(F)(F)F)cc3)CC2)cnc1-c1cc(C(=O)O)ccn1 [Example 107] , thanks.
Output line: ≤ 100 nM

====

molecular target: KDM5B enzyme (Homo sapiens); experiment: KDM5B HTRF (TR-FRET) demethylase inhibition assay; assay type: biochemical; settings: 1.2 nM KDM5B, 30 nM Biotin-H3K4Me3 1-21 substrate, 10 point dose-response
Let's look at some compounds and their measured IC50.

As a guide, the following entries are already answered.
smilesText: Cc1cc(Cl)ccc1CCn1ccnc1-c1cc(C(=O)O)ccn1
IC50: 100 to 500 nM

smilesText: COc1ccc(CCn2c(-c3cc(C(=O)O)ccn3)nc3ccccc32)cc1
IC50: 100 to 500 nM

Please turn your attention to the following entry.
Input line: What value of IC50 has been reported for the following compound? `COc1ccc(-n2c(-c3cc(C(=O)O)ccn3)nc3ccccc32)cc1`
Output line: ≤ 100 nM

These entries and their values trace back to patent US20190055212A1.
